# Test system: HIVmutant9 (10 mutations)
# experiment: Antiviral assay in MT-4 cells (MTT), mutant 9 virus
# Assay type: cell-based, HIV
# experimental.setup: Human immunodeficiency virus 1, MT4, 120 h, read-out: IC50 Mutant 9
Label label 1 when IC50 < 20 nM; otherwise label 0.

(Q) Criterion: IC50 strictly below 20 nM. Is it met by CC(C)CN(CC(O)C(Cc1ccccc1)NC(=O)OC1COC2OCCC12)S(=O)(=O)c1ccc2c(c1)C(=CNCC1CCCCC1)C(=O)N2 (stereo not drawn) [Compound 72] ?
(A) label 1

====

Exercise: for every item that follows, state its recorded pKi.
# system.name: wild type HIV PR (Human immunodeficiency virus type 1 group M subtype B, UniProt P04585)
# Construct: Recombinant wild type and mutant HIV PRs were expressed using pET21 vector (Novagen) in E. coli cells
# experiment: HIV PR inhibition assay, wild type
pKi: −log10 of the molar value.

CC(C)CN(CC(O)C(Cc1ccccc1)NC(=O)OC1COC2OCCC12)S(=O)(=O)c1ccc2c(c1)C(=CNCc1ccc3ccccc3n1)C(=O)N2 (stereo not drawn) | 10.00
CNC(C)=C1C(=O)Nc2ccc(S(=O)(=O)N(CC(C)C)CC(O)C(Cc3ccccc3)NC(=O)OC3COC4OCCC34)cc21 (stereo not drawn) | > 10.00
CCCN(C=C1C(=O)Nc2ccc(S(=O)(=O)N(CC(C)C)CC(O)C(Cc3ccccc3)NC(=O)OC3COC4OCCC34)cc21)CCC (stereo not drawn) | > 10.00
CCOC(=O)CN(C=C1C(=O)Nc2ccc(S(=O)(=O)N(CC(C)C)CC(O)C(Cc3ccccc3)NC(=O)OC3COC4OCCC34)cc21)Cc1ccccc1 (stereo not drawn) | > 10.00
CC(C)CN(CC(O)C(Cc1ccccc1)NC(=O)OC1COC2OCCC12)S(=O)(=O)c1ccc2c(c1)C(=CNC1CCCCC1)C(=O)N2 (stereo not drawn) | > 10.00

Next, consider the following molecule.
(Q) Return pKi for the following molecule: CC(NCC(F)(F)F)=C1C(=O)Nc2ccc(S(=O)(=O)N(CC(C)C)CC(O)C(Cc3ccccc3)NC(=O)OC3COC4OCCC34)cc21 (stereo not drawn)
(A) > 10.00

====

# system.name: mutant HIV PR (Mutant 9) (Human immunodeficiency virus type 1 group M subtype B, UniProt P04585)
# experiment: HIV PR inhibition assay, Mutant 9
# experimental.setup: read-out: Ki Mutant 9; recombinant mutant HIV PR, fluorogenic substrate, pH 6.5
I'd be grateful if you could share measured Ki for these entries.
Numbers only, in nM.

Example entries begin here.
CCOC(=O)CN(C=C1C(=O)Nc2ccc(S(=O)(=O)N(CC(C)C)CC(O)C(Cc3ccccc3)NC(=O)OC3COC4OCCC34)cc21)Cc1ccccc1 (stereo not drawn) | 0.11
CC(C)CN(C=C1C(=O)Nc2ccc(S(=O)(=O)N(CC(C)C)CC(O)C(Cc3ccccc3)NC(=O)OC3COC4OCCC34)cc21)CC(C)C (stereo not drawn) | 0.21

Now take the following compound into account.
(Q) Specify reported Ki for the compound shown: CC(C)CC(C)NC=C1C(=O)Nc2ccc(S(=O)(=O)N(CC(C)C)CC(O)C(Cc3ccccc3)NC(=O)OC3COC4OCCC34)cc21 (stereo not drawn)
(A) 0.25

====

Answer each item with its documented IC50.
# Tested on: HIVmutant9 (10 mutations)
# experiment: Antiviral assay in MT-4 cells (MTT), mutant 9 virus
# Format: cell-based, HIV
# experimental.setup: Human immunodeficiency virus 1, MT4, 120 h, read-out: IC50 Mutant 9
Give bare numbers, in µM.

Record excerpt, results attached:
CC(C)CN(CC(O)C(Cc1ccccc1)NC(=O)OC1COC2OCCC12)S(=O)(=O)c1ccc2c(c1)C(=CNCc1ccc3ccccc3n1)C(=O)N2 (stereo not drawn) | 0.023
C=CCN(C=C1C(=O)Nc2ccc(S(=O)(=O)N(CC(C)C)CC(O)C(Cc3ccccc3)NC(=O)OC3COC4OCCC34)cc21)C1CCCC1 (stereo not drawn) | 0.02
CCCC(C)NC=C1C(=O)Nc2ccc(S(=O)(=O)N(CC(C)C)CC(O)C(Cc3ccccc3)NC(=O)OC3COC4OCCC34)cc21 (stereo not drawn) | 0.015
CCCCNC=C1C(=O)Nc2ccc(S(=O)(=O)N(CC(C)C)CC(O)C(Cc3ccccc3)NC(=O)OC3COC4OCCC34)cc21 (stereo not drawn) | 0.011
CC(C)CN(CC(O)C(Cc1ccccc1)NC(=O)OC1COC2OCCC12)S(=O)(=O)c1ccc2c(c1)C(=CNCC1CC1)C(=O)N2 (stereo not drawn) | 0.022

Report IC50 for every entry below.
1. CC(C)CN(CC(O)C(Cc1ccccc1)NC(=O)OC1COC2OCCC12)S(=O)(=O)c1ccc2c(c1)C(=CNC1CCC1)C(=O)N2 (stereo not drawn)
2. CCOC(=O)C(NC=C1C(=O)Nc2ccc(S(=O)(=O)N(CC(C)C)CC(O)C(Cc3ccccc3)NC(=O)OC3COC4OCCC34)cc21)C(C)C (stereo not drawn)
3. CC(C)CN(C[C@@H](O)[C@H](Cc1ccccc1)NC(=O)O[C@H]1CO[C@H]2OCC[C@H]21)S(=O)(=O)c1ccc2c(c1)/C(=C/NCC(C)(C)C)C(=O)N2

(A)
1. 0.031
2. 0.016
3. 0.0095

Quick batch: IC50 for everything below.
1. CC(C)CN(C=C1C(=O)Nc2ccc(S(=O)(=O)N(CC(C)C)CC(O)C(Cc3ccccc3)NC(=O)OC3COC4OCCC34)cc21)CC(C)C (stereo not drawn)
2. CCCCN(C=C1C(=O)Nc2ccc(S(=O)(=O)N(CC(C)C)CC(O)C(Cc3ccccc3)NC(=O)OC3COC4OCCC34)cc21)CC (stereo not drawn)
3. CCc1cccc(NC=C2C(=O)Nc3ccc(S(=O)(=O)N(CC(C)C)CC(O)C(Cc4ccccc4)NC(=O)OC4COC5OCCC45)cc32)n1 (stereo not drawn)
4. CC(C)CN(CC(O)C(Cc1ccccc1)NC(=O)OC1COC2OCCC12)S(=O)(=O)c1ccc2c(c1)C(=CNCCc1ccccn1)C(=O)N2 (stereo not drawn)

(A)
[0.023, 0.015, 0.03, 0.035]
